- Tested on: Staphylococcus aureus 209P
- assay-comment: Minimal inhibitory concentration, agar serial dilution
- Assay type: cell-based
- condition-context: TSA, inoculum 10^7 /ml
measured-endpoint: Minimal inhibitory concentration (MIC)

                                   compound  result
0  Cn1nnnc1SCC1=C(C(=O)O)N2C(=O)C(NC(=O)/C(=N\O)c3csc(=N)[nH]3)C2SC1 (stereo not shown)    0.39
1  Cc1nnc(SCC2=C(C(=O)[O-])N3C(=O)C(NC(=O)Cn4cnnn4)[C@H]3SC2)s1.[Na+] (stereo partly shown) [Cefazolin, reference compound]    0.39
2  N=c1[nH]c(/C(=N/O)C(=O)NC2C(=O)N3C(C(=O)O)=C(CSc4cnn[nH]4)CSC23)cs1 (stereo not shown)    0.78

Request: Look up Minimal inhibitory concentration (MIC) of O=C(Cc1cccs1)N[C@@H]1C(=O)N2C(C(=O)[O-])=C(C[n+]3ccccc3)CS[C@H]12 [Cephaloridine, reference compound] and report it.
Result: 0.05

Request: Specify Minimal inhibitory concentration (MIC) for CC(=O)OCC1=C(C(=O)O)N2C(=O)C(NC(=O)/C(=N\O)c3csc(=N)[nH]3)C2SC1 (stereo not shown) and stop.
Result: 0.39

Request: Return Minimal inhibitory concentration (MIC) (reported value) for this compound: Cc1nnc(SCC2=C(C(=O)O)N3C(=O)C(NC(=O)/C(=N\O)c4csc(=N)[nH]4)C3SC2)s1 (stereo not shown)
Result: 0.39

Request: Report Minimal inhibitory concentration (MIC), nothing else, for this compound: N=c1[nH]c(C(=NO)C(=O)NC2C(=O)N3C(C(=O)[O-])=C(C[n+]4ccc(C(N)=O)cc4)CSC23)cs1 (stereo not shown)
Result: 0.39

---

Each entry below carries its reported Minimal inhibitory concentration (MIC).
- Test system: Staphylococcus aureus 209P
- assay-comment: Minimal inhibitory concentration, agar serial dilution
- Type: cell-based
- condition-context: TSA, inoculum 10^7 /ml
Keep it simple and answer with nothing but the number.

                                   compound  numeric_readout
0  Cc1nsc(SCC2=C(C(=O)O)N3C(=O)C(NC(=O)/C(=N\O)c4csc(=N)[nH]4)C3SC2)n1 (stereo not shown) [Example 14]             0.39
1  N=c1[nH]c(/C(=N/O)C(=O)NC2C(=O)N3C(C(=O)O)=C(COC(N)=O)CSC23)cs1 (stereo not shown) [Example 26]             0.78
2  Cn1cnnc1SCC1=C(C(=O)O)N2C(=O)C(NC(=O)/C(=N\O)c3csc(=N)[nH]3)C2SC1 (stereo not shown) [Example 15]             0.78

Next compound, Minimal inhibitory concentration (MIC) to be filled in.
Request: State its Minimal inhibitory concentration (MIC): CC(=O)OCC1=C(C(=O)[O-])N2C(=O)C(NC(=O)Cc3cccs3)[C@H]2SC1.[Na+] (stereo partly shown) [Cephalothin, reference compound]
Result: 0.20

---

- Test system: Proteus rettgeri TN338
- assay-comment: Minimal inhibitory concentration, agar serial dilution
- Assay type: cell-based
- condition-context: TSA, inoculum 10^7 /ml
measured-endpoint: Minimal inhibitory concentration (MIC)
Give only the figure.

Request: Under Proteus rettgeri TN338: report Minimal inhibitory concentration (MIC) of Cc1nsc(SCC2=C(C(=O)O)N3C(=O)C(NC(=O)/C(=N\O)c4csc(=N)[nH]4)C3SC2)n1 (stereo not drawn) .
Result: 0.024

Request: # lookup: Proteus rettgeri TN338 Minimal inhibitory concentration (MIC), key = O=C(Cc1cccs1)N[C@@H]1C(=O)N2C(C(=O)[O-])=C(C[n+]3ccccc3)CS[C@H]12 [Cephaloridine, reference compound]
Result: 1.56

---

// reported Minimal inhibitory concentration (MIC) for each item listed
- Tested on: Escherichia coli NIHJ JC-2
- assay-comment: Minimal inhibitory concentration, agar serial dilution
- Assay type: cell-based
- condition-context: TSA, inoculum 10^7 /ml
# print the numeric value only

compound	Minimal inhibitory concentration (MIC)
N=c1[nH]c(C(=NO)C(=O)NC2C(=O)N3C(C(=O)[O-])=C(C[n+]4ccc(C(N)=O)cc4)CSC23)cs1 (centres unmarked)	0.39
Cc1nnc(SCC2=C(C(=O)[O-])N3C(=O)C(NC(=O)Cn4cnnn4)[C@H]3SC2)s1.[Na+] (some centres unmarked) [Cefazolin, reference compound]	1.56

Request: In one line, give reported Minimal inhibitory concentration (MIC) of the entry N=c1[nH]c(/C(=N/O)C(=O)NC2C(=O)N3C(C(=O)O)=C(CSc4cnn[nH]4)CSC23)cs1 (centres unmarked) .
Result: 0.10

Request: Identify measured Minimal inhibitory concentration (MIC) associated with O=C(Cc1cccs1)N[C@@H]1C(=O)N2C(C(=O)[O-])=C(C[n+]3ccccc3)CS[C@H]12 [Cephaloridine, reference compound]
Result: 3.13

---

- Test system: Proteus morganii IFO3168
- assay-comment: Minimal inhibitory concentration, agar serial dilution
- Type: cell-based
- condition-context: TSA, inoculum 10^7 /ml
- Excerpt: (a) Minimal inhibitory concentrations (Table 1 and 2) Method: Agar serial dilution
measured-endpoint: Minimal inhibitory concentration (MIC)
Form: value (number only, do not type unit).

molecule	numeric-readout
CC(=O)OCC1=C(C(=O)O)N2C(=O)C(NC(=O)/C(=N\O)c3csc(=N)[nH]3)C2SC1 (centres unmarked) [Example 5]	0.20
Cn1cnnc1SCC1=C(C(=O)O)N2C(=O)C(NC(=O)/C(=N\O)c3csc(=N)[nH]3)C2SC1 (centres unmarked) [Example 15]	0.024
Cn1nnnc1SCC1=C(C(=O)O)N2C(=O)C(NC(=O)/C(=N\O)c3csc(=N)[nH]3)C2SC1 (centres unmarked) [Example 12]	0.024
Cc1nnc(SCC2=C(C(=O)[O-])N3C(=O)C(NC(=O)Cn4cnnn4)[C@H]3SC2)s1.[Na+] (some centres unmarked) [Cefazolin, reference compound]	100

Request: State, for Proteus morganii IFO3168, measured Minimal inhibitory concentration (MIC) of the molecule listed here: N=c1[nH]c(C(=NO)C(=O)NC2C(=O)N3C(C(=O)[O-])=C(C[n+]4ccc(C(N)=O)cc4)CSC23)cs1 (centres unmarked) [Example 17]
Result: 0.39

Request: Report Minimal inhibitory concentration (MIC) under test system Proteus morganii IFO3168 for Cc1nsc(SCC2=C(C(=O)O)N3C(=O)C(NC(=O)/C(=N\O)c4csc(=N)[nH]4)C3SC2)n1 (centres unmarked) [Example 14] .
Result: 0.20

Request: Please respond with reported Minimal inhibitory concentration (MIC) (system Proteus morganii IFO3168) for Cc1nnc(SCC2=C(C(=O)O)N3C(=O)C(NC(=O)/C(=N\O)c4csc(=N)[nH]4)C3SC2)s1 (centres unmarked) [Example 16] .
Result: 0.05

Request: Tell me Minimal inhibitory concentration (MIC) of N=c1[nH]c(/C(=N/O)C(=O)NC2C(=O)N3C(C(=O)O)=C(CSc4cnn[nH]4)CSC23)cs1 (centres unmarked) [Example 13] when tested on Proteus morganii IFO3168.
Result: 0.20

Request: Look up and report Minimal inhibitory concentration (MIC), with Proteus morganii IFO3168 as system, for N=c1[nH]c(/C(=N/O)C(=O)NC2C(=O)N3C(C(=O)O)=C(COC(N)=O)CSC23)cs1 (centres unmarked) [Example 26]
Result: 0.39

---

- System: Proteus rettgeri TN338
- assay-comment: Minimal inhibitory concentration, agar serial dilution
- Assay type: cell-based
- condition-context: TSA, inoculum 10^7 /ml
Below: a set of entries, each annotated with reported Minimal inhibitory concentration (MIC).

Past entries and their recorded results:
In [3]: df
Out[3]:
                                   molecule             system_name                       measured_endpoint   result
0  Cc1nnc(SCC2=C(C(=O)O)N3C(=O)C(NC(=O)/C(=N\O)c4csc(=N)[nH]4)C3SC2)s1 (centres unmarked)  Proteus rettgeri TN338  Minimal inhibitory concentration (MIC)  ≤ 0.012
1  Cn1cnnc1SCC1=C(C(=O)O)N2C(=O)C(NC(=O)/C(=N\O)c3csc(=N)[nH]3)C2SC1 (centres unmarked)  Proteus rettgeri TN338  Minimal inhibitory concentration (MIC)  ≤ 0.012
2  N=c1[nH]c(C(=NO)C(=O)NC2C(=O)N3C(C(=O)[O-])=C(C[n+]4ccc(C(N)=O)cc4)CSC23)cs1 (centres unmarked)  Proteus rettgeri TN338  Minimal inhibitory concentration (MIC)     0.05
3  N=c1[nH]c(/C(=N/O)C(=O)NC2C(=O)N3C(C(=O)O)=C(CSc4cnn[nH]4)CSC23)cs1 (centres unmarked)  Proteus rettgeri TN338  Minimal inhibitory concentration (MIC)  ≤ 0.012
4  CC(=O)OCC1=C(C(=O)O)N2C(=O)C(NC(=O)/C(=N\O)c3csc(=N)[nH]3)C2SC1 (centres unmarked)  Proteus rettgeri TN338  Minimal inhibitory concentration (MIC)  ≤ 0.012
5  CC(=O)OCC1=C(C(=O)[O-])N2C(=O)C(NC(=O)Cc3cccs3)[C@H]2SC1.[Na+] (some centres unmarked) [Cephalothin, reference compound]  Proteus rettgeri TN338  Minimal inhibitory concentration (MIC)     1.56
6  Cn1nnnc1SCC1=C(C(=O)O)N2C(=O)C(NC(=O)/C(=N\O)c3csc(=N)[nH]3)C2SC1 (centres unmarked)  Proteus rettgeri TN338  Minimal inhibitory concentration (MIC)  ≤ 0.012

# context switch: different molecule, same Minimal inhibitory concentration (MIC)
Request: Output measured Minimal inhibitory concentration (MIC) for this item: N=c1[nH]c(/C(=N/O)C(=O)NC2C(=O)N3C(C(=O)O)=C(COC(N)=O)CSC23)cs1 (centres unmarked)
Result: ≤ 0.012
